The measured values listed here are drawn from ChEMBL document CHEMBL4406880.

Test system: NCI-H522
Assay: Growth inhibition of human NCI-H522 cells assessed as growth percentage at 10 uM incubated for 48 hrs by sulforhodamine B assay relative to control
Format: functional
Conditions: NCI-H522, 48 h, read-out: Activity
The entries below are paired with their reported growth at 10 µM.
Supply the numeric figure in %, leaving out any unit text.

1) CC1(C)CC(=O)C2=C(C1)NC(=O)NC2c1ccc2c(c1)OCO2 (racemic) = 93.9

Param readout= growth at 10 µM; system= NCI-H522; entry= O=C1C2=C(NC(=S)NC2c2ccc3c(c2)OCO3)c2ccccc21 (racemic) ; returns value.
91.5

Item: O=C1NC2=C(C(=O)c3ccccc32)C(c2ccc3c(c2)OCO3)N1 (racemic) Test system: NCI-H522 Read-out: growth at 10 µM Value: ?
90.7

###

Tested on: OVCAR-3
Assay: Growth inhibition of human OVCAR3 cells assessed as growth percentage at 10 uM incubated for 48 hrs by sulforhodamine B assay relative to control
Assay type: functional
Conditions: OVCAR-3, 48 h, read-out: Activity
The following compounds are listed with their measured growth at 10 µM values.

Example compounds with recorded growth at 10 µM:
1) CC1=C(C(=O)OCC(C)C)C(c2ccc3c(c2)OCO3)NC(=S)N1 (racemic) = 109%
2) CC1=C(C(=O)OCc2ccccc2)C(c2ccc3c(c2)OCO3)NC(=O)N1 (racemic) = 119%
3) CC(=O)C1=C(C)Nc2nc3ccccc3n2C1c1ccc2c(c1)OCO2 (racemic) = 105%
4) CC1=C(C(=O)OC(C)C)C(c2ccc3c(c2)OCO3)NC(=O)N1 (racemic) = 114%
5) CC1=C(C(=O)OCc2ccccc2)C(c2ccc3c(c2)OCO3)NC(=S)N1 (racemic) = 98.4%
6) CC(=O)C1=C(C)NC(=S)NC1c1ccc2c(c1)OCO2 (racemic) = 109%
7) CC1=C(C(=O)c2ccccc2)C(c2ccc3c(c2)OCO3)NC(=O)N1 (racemic) = 106%
8) CC1(C)CC(=O)C2=C(C1)NC(=O)NC2c1ccc2c(c1)OCO2 (racemic) = 115%
9) CC(=O)C1=C(C)NC(=O)NC1c1ccc2c(c1)OCO2 (racemic) = 115%
10) CC(=O)N1C(=S)NC(C)=C(C(=O)OCc2ccccc2)C1c1ccc2c(c1)OCO2 (racemic) = 104%

Can you share its growth at 10 µM? I mean this compound: O=C1C2=C(NC(=S)NC2c2ccc3c(c2)OCO3)c2ccccc21 (racemic)
113%

What does the data say about its growth at 10 µM? Entry: O=C1NC2=C(C(=O)c3ccccc32)C(c2ccc3c(c2)OCO3)N1 (racemic)
115%

What does the data say about its growth at 10 µM? Entry: COCCOC(=O)C1=C(C)NC(=S)NC1c1ccc2c(c1)OCO2 (racemic)
111%

Consider the compound CC(=O)N1C(=S)NC(C)=C(C(=O)OC(C)C)C1c1ccc2c(c1)OCO2 (racemic) and give its measured growth at 10 µM.
109%

Name the recorded growth at 10 µM for CC1=C(C(=O)OCC(C)C)C(c2ccc3c(c2)OCO3)NC(=O)N1 (racemic) .
117%

###

Tested on: U-251
Experiment: Growth inhibition of human U251 cells assessed as growth percentage at 10 uM incubated for 48 hrs by sulforhodamine B assay relative to control
Format: functional
Details: U-251, 48 h, read-out: Activity
Here, each record is paired with measured growth at 10 µM data.
# value in %; strip the unit string

1) CC(=O)C1=C(C)NC(=O)NC1c1ccc2c(c1)OCO2 (racemic) = 100

Okay, next one:
Could you tell me which growth at 10 µM is on file for O=C1C2=C(NC(=S)NC2c2ccc3c(c2)OCO3)c2ccccc21 (racemic) ?
97.8
